All figures here come from the NIST ThermoML archive (doi:10.1016/j.jct.2003.09.011).

Parameter activity coefficient: see the listing below.
Test: activity coefficient (dimensionless); of the first substance listed, at infinite dilution; xn = mol fraction of the nth substance listed
Conditions: 298.15 K; Liquid; Chromatography; x1 = 0
A bare number is all that is needed in reply.

Would you please look over these solved cases?
- C#CCCCCC [1-heptyne] + O=Cc1ccco1: 17.9
- C1CCCC1 [cyclopentane] + O=Cc1ccco1: 13.3
- CCCCCC [hexane] + O=Cc1ccco1: 27.8
- C1CCCCCC1 [cycloheptane] + O=Cc1ccco1: 15.5
- C=CCCCC [hex-1-ene] + O=Cc1ccco1: 15

Reported activity coefficient for CCCCC [pentane] + O=Cc1ccco1 : what is it?
21.6

Look up activity coefficient for this molecule: c1ccccc1 [benzene] + O=Cc1ccco1
2.45

Please look up its activity coefficient: CCCCCCC [heptane] + O=Cc1ccco1
33.4

Quick one: activity coefficient of C#CCCCC [1-hexyne] + O=Cc1ccco1 ?
5.09

Recorded activity coefficient for C1CCCCC1 [cyclohexane] + O=Cc1ccco1 , please?
13.6
